biological target: KRasG12C (M1-K169, biotinylated on the N-terminus) (Homo sapiens (Human), UniProt P01116, G12C); assay: Covalent competition assay: scintillation proximity assay (SPA) quantifying covalent modification of KRASG12C; conditions: competition with radiolabeled covalent probe (Compound B/Compound A), 2 hours incubation, 10 nM KRasG12C
measuredAttribute: IC50 (µM)

(a) C=CC(=O)N1CC2(CC(n3nc(N4CCN(C[C@@H]5COCCO5)C[C@]4(C)CC)c(-c4c(Cl)c(C)cc5[nH]ncc45)c3C)C2)C1 (single isomer, unassigned) [Example 173a]
(b) C=CC(=O)N1CC2(CC(n3nc(N4CCN(C(C)=O)CC4)c(-c4c(Cl)ccc5[nH]ncc45)c3C)C2)C1C (single isomer, unassigned) [Example 197b]
QUERY: Param metric = IC50; output whichever of a , b has the minimum value. Refer to your chosen entry by its label in the reply.
RESULT: a

(A) C=CC(=O)N1CC2(CC(n3nc(N4CCN(C(=O)[C@@H]5CCCO5)CC45CCC5)c(-c4c(Cl)c(C)cc5[nH]ncc45)c3C)C2)C1 (single isomer, unassigned) [Example 124b]
(B) C=CC(=O)N1CC2(CC(n3nc(N4CCN(C5COC5)CC45CCCC5)c(-c4c(Cl)c(C)cc5[nH]ncc45)c3C)C2)C1 (single isomer, unassigned) [Example 144b]
(C) C=CC(=O)N1CC2(CC(n3nc(N4CCN(CC(C)(C)O)C[C@@]4(C)C(F)F)c(-c4c(Cl)c(C)cc5[nH]ncc45)c3C)C2)C1 (single isomer, unassigned) [Example 166b]
(D) C=CC(=O)N1CC2(CC(n3nc(N4CCN(C5CCOCC5)C[C@]4(C)COC)c(-c4c(Cl)c(Cl)cc5[nH]ncc45)c3C)C2)C1 (single isomer, unassigned) [Example 150a]
(E) C=CC(=O)N1CC2(CC(n3nc(N4CCN(CC5COCCOC5)C[C@]4(C)CC)c(-c4c(Cl)c(C)cc5[nH]ncc45)c3C)C2)C1 (single isomer, unassigned) [Example 186b]
QUERY: Descending sort on IC50 required. Rank the items, then write their labels in that order.
RESULT: D, C, A, B, E

(P) C=CC(=O)N1CC2(CC(n3nc(N4CCN(C[C@@H]5COCCO5)C[C@]4(C)COC)c(-c4c(Cl)c(C)cc5[nH]nc(N)c45)c3C)C2)C1 (single isomer, unassigned) [Example 118a]
(Q) C=CC(=O)N1CC2(CC(n3nc(N4CCC(O)CC4(C)C)c(-c4c(Cl)c(C)cc5[nH]ncc45)c3C)C2)C1 (single isomer, unassigned) [Example 30b]
(R) C=CC(=O)N1CC2(CC(n3nc(N4CC[C@@H](CN5CCO[C@@H](CO)C5)CC4(C)C)c(-c4c(Cl)c(Cl)cc5[nH]ncc45)c3C)C2)C1 (single isomer, unassigned) [Example 247a]
(S) C=CC(=O)N1CC2(CC(n3nc(N4CC[C@@H](CN5CCOC6CS(=O)(=O)CC65)CC4(C)C)c(-c4c(Cl)c(Cl)cc5[nH]ncc45)c3C)C2)C1 (single isomer, unassigned) [Example 266b]
(T) C=CC(=O)N1CC2(CC(n3nc(N4CC[C@@H](CN5CCN6CCOC[C@H]6C5)CC4(C)C)c(-c4c(Cl)c(Cl)cc5[nH]ncc45)c3C)C2)C1 (single isomer, unassigned) [Example 288b]
QUERY: Hey, quick one: sort these by IC50, low to high? Rank the items, then write their labels in that order.
RESULT: S, T, P, R, Q

(A) C=CC(=O)N1CC2(CC(n3nc(N4CCN(C5COC5)CC45CCC5)c(-c4c(Cl)c(C)cc5[nH]ncc45)c3C)C2)C1 (single isomer, unassigned) [Example 54b]
(B) C=CC(=O)N1CC2(CC(n3nc(N4CC[C@@H](CN5CC6CC6(O)C5)CC4(C)C)c(-c4c(Cl)c(Cl)cc5[nH]ncc45)c3C)C2)C1 (single isomer, unassigned) [Example 258b]
(C) C=CC(=O)N1CC2(CC(n3nc(N4CCC(N5CCOCC5)CC4(C)C)c(-c4c(Cl)c(C)cc5[nH]ncc45)c3C)C2)C1 (single isomer, unassigned) [Example 35a]
QUERY: Hey, quick one: sort these by IC50, low to high? Rank the items, then write their labels in that order.
RESULT: A, B, C
(A: 0.015 µM, B: 0.022 µM, C: 0.254 µM)
